Test system: SK-OV-3 ovarian
Experiment: NCI-60 one-dose screen, 48 h
Conditions: 10 µM unless noted
About 83,000 compounds went through this panel and 20% of them were active in at least one assay; those are over-represented in the sample as a whole. Activity calls are given as the source filed them. How the source made its calls: active means growth percent below 10; inactive means the rest.
Your answer must be one of the following: active, inactive

Given `Oc1c(Cl)c2ccccc2c2ccccc12` , state the outcome it received in this test.
inactive

Given N#CC1C(=O)SC2c3ccccc3C(=O)c3ccccc3C12 (stereo unspecified) , state the outcome it received in this test.
inactive

Given `Cc1cc2nc(CS)[nH]c2cc1C` , state the outcome it received in this test.
inactive

Given `NC(=O)/C=C/C(=O)c1c(Cl)cccc1Cl` , state the outcome it received in this test.
inactive

Given `N#CSCc1ccc(Cl)c(CSC#N)c1` , state the outcome it received in this test.
inactive

Given `O=C1c2ccccc2C(=O)N1c1ccccc1` , state the outcome it received in this test.
inactive

Given CN1c2ccccc2C(C)(C)C12C=Cc1cc(O)ccc1O2 (stereo unspecified) , state the outcome it received in this test.
inactive

Given `COc1ccc(N=N/N=c2\sc3cc(OC)ccc3n2C)cc1` , state the outcome it received in this test.
inactive

Given `CCOC(=O)/C=C/c1ccc([N+](=O)[O-])o1` , state the outcome it received in this test.
inactive

Given `CCCCCCCCCCCCCCNCc1ccccc1` , state the outcome it received in this test.
inactive

Given `CN(C)CCOc1ccc2c(c1)C(=O)/C(=C\c1ncc([N+](=O)[O-])n1C)C2` , state the outcome it received in this test.
active

Given `COc1ccccc1/C=C\C(=O)c1ccccc1` , state the outcome it received in this test.
inactive

Given `O=C(Nc1ccccc1)c1cc(Cl)ccc1O` , state the outcome it received in this test.
inactive

Given Cc1ccnc(NC(c2ccccc2)c2ccc3cccnc3c2O)c1 (stereo unspecified) , state the outcome it received in this test.
inactive

Given `Oc1c(Br)cc(Cl)cc1C(c1cc(Cl)cc(Br)c1O)C(Cl)(Cl)Cl` , state the outcome it received in this test.
inactive

Given `O=C1C=CC(=O)N1C1c2ccccc2-c2ccccc21` , state the outcome it received in this test.
inactive

Given `CC(C)(C)CC(C)(C)c1ccc(OCCSC(=N)N)cc1` , state the outcome it received in this test.
inactive

Given `CNC(=O)N/N=C/c1ccc([N+](=O)[O-])o1` , state the outcome it received in this test.
inactive

Given `CCC(CC)COC(=O)c1ccc(O)c(O)c1` , state the outcome it received in this test.
inactive

Given CCC(CCCN(CC)CCc1ccccc1)OC(=O)c1cc(OC)c(OC)c(OC)c1 (stereo unspecified) , state the outcome it received in this test.
inactive

Given `N#CSCC(=O)c1ccc(Cl)cc1` , state the outcome it received in this test.
inactive

Given `Cn1c2ccccc2c2nnc(N/N=C/c3ccccn3)nc21` , state the outcome it received in this test.
active

Given `NC1=CC(=O)c2ccccc2C1=O` , state the outcome it received in this test.
inactive

Given `N#CSCc1ccc(CSC#N)c(Cl)c1` , state the outcome it received in this test.
inactive

Given `CCC(=O)Sc1ccccc1C(=O)Nc1ccc(Cl)cc1` , state the outcome it received in this test.
inactive

Given `O=C(Oc1cccc2cccnc12)c1ccccc1` , state the outcome it received in this test.
inactive

Given `CC(=O)C(=Cc1ccc(C=C(C(C)=O)C(C)=O)cc1)C(C)=O` , state the outcome it received in this test.
inactive

Given `Cc1cc(C(C)(CC(C)C)c2ccc(O)c(C)c2)ccc1O` , state the outcome it received in this test.
inactive

Given `Oc1ccc(/C=N/NC(=S)Nc2ccccc2)nc1` , state the outcome it received in this test.
inactive

Given `CNc1ccc(N)cc1` , state the outcome it received in this test.
inactive

Given `CCOC(=O)/C(=C\c1ccc(-c2ccccc2)cc1)C(C)=O` , state the outcome it received in this test.
inactive

Given `COc1ccc(-c2cscc2N)cc1` , state the outcome it received in this test.
inactive

Given `C[n+]1c(/C=C/c2ccc([N+](=O)[O-])cc2)ccc2ccccc21` , state the outcome it received in this test.
inactive

Given `CN(C)c1ccc(N=Nc2cccc3ccccc23)cc1` , state the outcome it received in this test.
inactive

Given `Cc1ccc2c(ccc3c[n+]4c5ccccc5ccc4n32)c1` , state the outcome it received in this test.
active

Given `O[C@H]1[C@H]2c3cc4c(cc3CN3CCC(=C[C@@H]1O)[C@H]23)OCO4` , state the outcome it received in this test.
inactive

Given `N#CSCc1c(Cl)cccc1Cl` , state the outcome it received in this test.
inactive

Given `Nc1ccc(SSc2ccc(N)cc2)cc1` , state the outcome it received in this test.
inactive

Given CC1OC2CC(=O)OC2C2=C1C(=O)c1c(O)cccc1C2=O (stereo unspecified) , state the outcome it received in this test.
inactive

Given `OC(CNc1ccnc2cc(Cl)ccc12)CNc1ccnc2cc(Cl)ccc12` , state the outcome it received in this test.
inactive

Given `COC(=O)c1nc(=S)[nH]c(C(=O)OC)c1C(=O)c1ccccn1` , state the outcome it received in this test.
inactive

Given `NC(N)=N/N=C/c1ccc([N+](=O)[O-])o1` , state the outcome it received in this test.
inactive

Given `O=C(Nc1ccc(F)cc1)ON=C1CCCCC1` , state the outcome it received in this test.
inactive

Given `Cc1c2ccccc2c(C)c2c1ccc1ccccc12` , state the outcome it received in this test.
inactive

Given `COc1cc(NS(C)(=O)=O)ccc1Nc1c2ccccc2nc2ccccc12` , state the outcome it received in this test.
inactive

Given `N[C@H](C(=O)O)[C@@H]1CC(Cl)=NO1` , state the outcome it received in this test.
inactive

Given `CN(C)C(=O)SC1=C(c2c(Cl)cccc2Cl)C(=O)c2ccccc21` , state the outcome it received in this test.
inactive

Given `O=C1N[C@H]2[C@H](CS[C@H]2CCCCC(=O)N(CCP(c2ccccc2)c2ccccc2)CCP(c2ccccc2)c2ccccc2)N1` , state the outcome it received in this test.
inactive

Given `Cn1c2c(c3ccccc31)CCN1C[C@@H]3CCCC[C@H]3C[C@@H]21` , state the outcome it received in this test.
active

Given `CC(=O)ON=C1C=CC(=C(C#N)c2ccccc2)C=C1` , state the outcome it received in this test.
inactive

Given `O=C(Nc1cccc(Br)c1)Oc1ccc(Cl)c2cccnc12` , state the outcome it received in this test.
inactive
